Provenance of the data: patent US5084468A

- Test system: HeLa S3 cells
- assay_explanation: Growth inhibition of HeLa S3 cells (neutral red, 72 hours)
- Assay type: cell-based
- condition_label: Homo sapiens; HeLa S3 cells, 72 hours, neutral red staining; read-out: IC50 (drug concentration which inhibited growth of HeLa S3 cells by 50%)
Measured log10 IC50 of individual entries
Each number you see is log10 of IC50, and the unit inside the log is nM.

Examples with answers:
{"molecule": "COC(=O)C1(C)Nc2c(O)cc3c(c2C1=O)C(CBr)CN3C(=O)/C=C/c1ccc(NC(C)=O)cc1 (stereo not drawn) [Compound 37]", "log10 IC50": -0.13}
{"molecule": "COC(=O)C1(C)Nc2c(O)cc3c(c2C1=O)C(CBr)CN3C(=O)/C=C/c1ccc(N)cc1 (stereo not drawn) [Compound 48]", "log10 IC50": 0.08}
{"molecule": "COC(=O)C1(C)NC2=C(C1=O)C13CC1CN(C(=O)COc1ccccc1)C3=CC2=O (stereo not drawn) [Compound 14]", "log10 IC50": 0.83}
{"molecule": "COC(=O)C1(C)NC2=C(C1=O)C13CC1CN(C(=O)c1cc4ccccc4s1)C3=CC2=O (stereo not drawn) [Compound 25]", "log10 IC50": 0.88}
{"molecule": "COC(=O)C1(C)NC2=C(C1=O)C13CC1CNC3=CC2=O (stereo not drawn) [Compound 18]", "log10 IC50": 3.59}
{"molecule": "COC(=O)C1(C)NC2=C(C1=O)C13CC1CN(C(=O)Nc1ccccc1)C3=CC2=O (stereo not drawn) [Compound 8]", "log10 IC50": 0.51}
{"molecule": "COC(=O)C1(C)NC2=C(C1=O)C13CC1CN(C(=O)/C=C/c1cccc(OC)c1)C3=CC2=O (stereo not drawn) [Compound 27]", "log10 IC50": -0.22}
{"molecule": "COC(=O)C1(C)Nc2c(O)cc3c(c2C1=O)C(CBr)CN3C(=O)c1cc2cc(N)ccc2[nH]1 (stereo not drawn) [Compound 33]", "log10 IC50": -0.06}

So for COC(=O)C1(C)NC2=C(C1=O)C13CC1CN(C(=O)c1cc4ccccc4[nH]1)C3=CC2=O (stereo not drawn) [Compound 1] , the logged log10 IC50 turned out to be 0.04
